# procedure details: label from the status in PepcDB records;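 note: failed if final PepcDB status was selected cloned or expressed and not failed if soluble or beyond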
assay readout: protein production

MTFGEKLLNAASTRGRLCVGIDPHESLLTSWGLPVNVDGLAEFSRACVEAFADTVALVKPQVAFYERFGSAGFAILEETIQTLRERGCLVVSDAKRGDIGSTMAGYASAWLDPASPLSSDAVTVSPYLGFHSLDPVFELAEQHGRGVFVLAATSNPEARELQDQQNADGVSISQQIVDQAAALNAPYMAQGKAGNIGVVIGATLSKPPRLSTLGGAILMPGVGAQGGTASDVDEIAGDMAHLAFPNVSRSILATGPDIAEMKNSVAKNAADFPGFPRS = failed
MNITLAVLQLEDIPQAKQFAIRTRQLLFPDVYQLALPYDLTHFQDVYLHDQKGACFVVKDQQHNIIGMIAYRAYNHRFALDIPKDSVEVVKLFIQPEYRRQGLASRLCEALFGYAAQQKIKYFYLHTHPFLPAAEYFWTKQGFDVIHREEIQNYDTIHMFKSA = failed

----------
# procedure details: label from the status in PepcDB records
assay readout: protein production

In the examples that follow, each entry is paired with its recorded protein production.
MAIKFQYNKTSLQQLEKQLKVRVRTLPIIKNKESALRMEVKRCKTEAAGLEERLEKQIQAYEAMFALWNEFDASLIKVSDVHLGIKKIAGVRVPLLENVDFDIRPYSLFNSPKWYSDGIYLLKGLAQTAIEREFMLAKLNLLEHARKKTTQKVNLFEKVQIPGYQDALRKIKRFMEDEENLSKSSQKILKSIQEKRKEAEA = not failed
MPKLNLTSIDVLLSDDSDRRQLACKSNHSTVSSLPAMDSRESITSTSPEVAILLCTYHGQRYLPEQLASFEVQSHSNWKVWASDDGSEDGTHAILDAYSRKWPEGRLSICSGPSEGFAANFISLTCKDSIQADFYAYSDQDDIWNVNKLARAVQWLETVPVNIPALYCSRTRLVDSDDNEIGISPLFVRPPSFANALMQNIGGGNTMVFNNAARELFCEAGENTLVVAHDWWAYIAVTGCGGQVFYDREPTLRYRQHNGNLIGTNSNWSARFKRIHMLFQGEFRRWSDINIAALGALEHKLTPENREILQRFASGRKMSLIPRLIQFKRAGIYRQTLFSNFGLVVAAIFGKV = failed
MRKVTAAVMASTLAFSFLSHAAEVVTSDNWHPGDGATQRSAQNHMFDGISLTEHQRQQMRDLMQQARHEQPPVNVSEMETMHRLVTAEKFDESAVRAQAEKMAQEQVARQVEMARVRNQMYRLLTPEQQAVLNEKHQQRMEQLRDVAQWQKSSSLKLLSSSNSRSQLEHHHHHH = failed
MEQEILALFEKILSRKVGFNDELIESDILDSILAVDLVLEVQDVYGCVIPPTEVATVLKTPADLARYIEENRG = failed
MEYQHWLREAISQLQASESPRRDAEILLEHVTGRGRTFILAFGETQLTDEQCQQLDALLTRRRDGEPIAHLTGVREFWSLPLFVSPATLIPRPDTECLVEQALARLPEQPCRILDLGTGTGAIALALARERPDCEITAVDRMPDAVALAQRNAQHLAIKNIHILQSDWFSALAGQQFAMIVSNPPYIDEQDPHLQQGDVRFEPLTALVAADSGMADIVHIIEQSRNALVSGGFLLLEHGWQQGEAVRQAFILAGYHDVETCRDYGDNERVTLGRYYQ = failed

Parameter requested: protein production. Apply to each item below.
1. MLKVLFVPLNRNYVFDYIDDWKNIVADSLSRAGLSSEILIWPSTIKPSMKCFNWARKQYLAPCIIENMGNMFYDYLNEYFIVGIGYIDGYDYGLNFVFGEASPINRIAVVFTRRLDPRFYGEEPNYNLYLERVAKEIVHELGHLLGLSHCKRRTCVMSFSNSVYEVDAKTRFFCETCSNTLRKLNVLEHHHHHH
2. MKKTPIYVEISIQAEMERLWRYTQDPTLHRQWDLRFTDITYLKRRPGEPQRFLYETRIGFGLEHHHHHH
3. MPDYGHDLLFGAVLTPDAQNPRAVLESARLADRSGLDLVSVPDHPYRPDFLDAWTLLSVIAAHTERVRVFPNVANLPLRPPAGLARAAAALDVLSGGRVELGLGAGGYWDAIAGEGQPRRTPGEAVEALAEAIDVIRALWASGGAGATVDGTHYRLDGARPGPPAAHPLGIWVGALGPRMLRLIGRTADGWLPSATRVPPAELAVGQRIVDEAAIAAGRDPRAVRRLYNLP
4. MTAPIIITGVGKRIGYALAKHLLAQGHKVIGTYRSHYPSIDELQSLGATLIQCDFYDNAQVQNLIEQLSQYPKFRAIIHNASDWLADNSPEFAAHEVMQRMIQVHVNVPYQMNLALASKLQAGAEGEIGASDIIHITDYVAEKGSAKHIAYAASKAALDNLTLSFAAKLAPEVKVNAIAPAMILFNPSDDEAYRQKTLAKAILPKEAGNHEIIELMEYLLNSRYVTGRSHHVDGGRHLR
5. MTNILILMEREIIKILSVVEFHPLILAFHLGLMLAGVSLLSYSLFLILVKKVDIMLPLVISFMAYLTSLILLILILLLETYRFLIFDGRILVKNSLLTRNEFKFSLRDKNLIIGFYDKASLGKFAIIYGDRLLFKFLTQQKNIRLIKNFVVKSGYRLGGTYKICRVCGSINEENAEYCDFCGSREVSPYDLYWID
6. MTKRHVSLPADAKDVRRAFVSGVDERLSAAETPDELATAVTGTLADLRGERDAYEAWRDGDDVRPAAAARLATLDPRNASLESEYYAEKDEAAFARSKPLQWLWRQFDTTPLADNVDVALPFRRMLAGHLFAGVGEDVRLFKGITMTYGHNIELGDNAVVHDGVHLDDRGELVVGARASVSNGAHLYTHDHDVVDQTDVTNYRTEIGADARVTQGALVRAGVRVGENALVGSRSVVQGDVPAHHIAVGSPAESVRVKPGWEAVAAPLDAGGERRQAERRLDDAVPADAAVYDEFQRDRSPPGER
7. MKLKYCHYAYDDEGYVIHMLTSNERTFFTNAYIIETKNSIVVVDTLMVNSDAILLRQYMDNINKPLIAVIITHGHPDHYNGTEIITGFKEVPIISTKGIRDCIQDTVDSKEVKWKPYFGQDWPEHKILPNQLVIDSEVVNLDGLDYSFRDLGAAESSSDLFFTLGEKRSVIFVGDVVFNNMHGFMNDGNSAQWLKVLQKLLTEIADVKLLFTGHGDPGDTHQLVQRQIDYISHYRSNLLAIIRGNQLEHHHHHH

Response:
failed
not failed
failed
not failed
failed
failed
failed

Request: Which protein production is listed for MGSSSSFSSSSSKLLFRQLFENESSTFTYLLADVSHPDKPALLIDPVDKTVDRDLKLIDELGLKLIYAMNTHVHADHVTGTGLLKTKLPGVKSVISKASGSKADLFLEPGDKVSIGDIYLEVRATPGHTAGCVTYVTGEGADQPQPRMAFTGDAVLIRGCGRTDFQEGSSDQLYESVHSQIFTLPKDTLIYPAHDYKGFEVSTVGEEMQHNPRLTKDKETFKTIMSNLNLSYPKMIDVAVPANMVCGLQDVPSQAN ?
Response: not failed

----------
# procedure details: label from the status in PepcDB records
assay readout: protein production

MTHTHRPAALEVHHPQPLAVHPTVAPLVTVQPGPTPAVQSIVLPDGRVVTGYTLTPAPALAPVDARPAVSRTAVNVALGGVGFAAVCGGLVLLTTFIAALTTFISQLITLAAVIFGGWIAVQILGGTRHTGRGGTTINIRKAVIKRSHFHG = failed
MTETNHDQAEYWGKSASGMKWLTFEEQIAASFAPVVDLLLERAALKPGQRVLDIGCGLGDVTLAAAQAVGPGGHVLGVDISAPFLERAGLRASGMGNVGFALADAQSEPFAPAERDAVLSRFGMMFFSDTVAAFANIARALKPGGRMTFAAWGPLAGNPWFYLPHRAATDRLGQMPKVDRNAPGPLAFHDIDRVTGLMAEAGLADIEAQAVDLNLTPPGGLEGAAALCTRLGPAARVLAHFNGSEADEAAIRDAVSAALEPYVEGGEVLMPATINLFQARRAGTA = failed

----------
# procedure details: label from the status in PepcDB records
assay readout: protein production

// worked examples, protein production included
MTTFSHSSTTPSVSVTTASGNNQSQLVATPVPDEQRISFWPQHFGLIPQWVTLEPRVFGWMDRLCEDYCGGIWNLYTLNNGGAFIAPEPDEDDGETWILFNAMNGNRAEMSPEAAGIAACLMTYSHHACRTECYAMTVHYYRLRDYALQHPECSAIMRIID = failed
MGGFRFHQYQVVGRALPTENDEHPKIYRMKLWGRNEVCAKSKFWYFMRKLKKVKKSNGQMLAINEIFEKNPTTIKNYGIWLRYQSRTGYHNMYKEYRDTTLNGGVEQMYTEMASRHRVRFPCIQIIKTATVPAKLCKREITKQFHNSKIKFPLVFRKVRPPSRKLKTTYKASKPNLFM = failed
MASPAAGDVLIVGSGLVGRSWAMLFASGGFRVKLYDIEPRQITGALENIRKEMKSLQQSGSLKGSLSAEEQLSLISSCTNLAEAVEGVVHIQECVPENLDLKRKIFAQLDSIVDDRVVLSSSSSCLLPSKLFTGLAHVKQCIVAHPVNPPYYIPLVELVPHPETSPATVDRTHALMRKIGQSPVRVLKEIDGFVLNRLQYAIISEAWRLVEEGIVSPSDLDLVMSDGLGMRYAFIGPLETMHLNAEGMLSYSDRYSEGMKRVLKSFGSIPEFSGATVEKVNQAMCKKGPADPEHLAARREWRDECLKRELAKLKRQMQPQ = not failed
MAIGMSELKKGLKIELGGVPYRIVEYQHVKPGKGAAFVRAKIKSFLDGKVIEKTFHAGDKCEEPNLVEKTMQYLYHDGDTYQFMDIESYEQIALNDSQVGEASKWMLDGMQVQVLLHNDKAISVDVPQVVALKIVETAPNFKGDTSSASKKPATLETGAVVQVPFHVLEGEIIKVNTETEEYLEKVK = failed
MITSTNKEAYPNTLIVILGHDEGRSSFEEKEDVTRVTNDKGETIGFNFFNVDKLIDFDKLPNGPVKLSDDELEALNKKLAEVGFDDKLEYGKPTLVYGYVKTCEKHPDSDHLHVTTIEVGDGEEHQIVCGAPNIAQGQKVVVALPGTLMPNGAQIWPGKLRGVDSYGMICSARELGLPHAPQKRGIMVVPDSFEVGAEFEPTKCDELIASGEITLLEHHHHHH = not failed

Provide protein production values for the following items, in order.
1. MSLGNIFVTGRIAFSLKYEQQTQSLVVHVKECHQLAYADEAKKRSNPYVKTYLLPDKSRQGKRKTSIKRDTVNPLYDETLRYEIPESLLAQRTLQFSVWHHGRFGRNTFLGEAEIQMDSWKLDKKLDHCLPLHGKISAESEGHHHHHH
2. IQNVLSYITEHFSEGMSLKTLGNDFHINAVYLGQLFQKEMGEHFTDYLNRYRVNYAKEELLQTKDNLTIIAGKSGYTDMAYFYRQFKKHTGETPNRYRKIHQ
3. MACHELSALRIAIGELLEKEAHDLLHEREELAPVLGQRPELKRLAEAKTLPALEEALREALLHLEERAAQEPEEPYWRGLLLAVEAMEGRLKALRAEAEALYQDLDALHGRLHRLFPRRR

Response:
1. not failed
2. failed
3. not failed
